system: IGROV1 ovarian; experiment: NCI-60 one-dose screen, 48 h (100 = growth as untreated, 0 = no growth, -100 = all killed); settings: 10 µM
Compounds without any hit were thinned out: in the full panel of roughly 83,000, 20% have a hit.
ENDPOINT_NAME: growth (%)
Could you give me the number in %? Just the number is fine.

Before answering, review these 5 worked examples.
[
  {
    "COMPOUND": "S=c1sc2ccccc2n1CN1CCCCC1",
    "growth, %": 105
  },
  {
    "COMPOUND": "CCCC(=O)Nc1ccc2c(c1)CN1C(=O)c3ccccc3C1=N2",
    "growth, %": 111
  },
  {
    "COMPOUND": "O=C(Nc1cccc(NC(=O)Nc2cc(C(F)(F)F)ccc2Cl)c1)Nc1cc(C(F)(F)F)ccc1Cl",
    "growth, %": 26.9
  },
  {
    "COMPOUND": "Nc1ccc(CC(=O)O)c(N)c1",
    "growth, %": 106
  },
  {
    "COMPOUND": "CCCCNC1(C#N)CCN(Cc2ccccc2)CC1",
    "growth, %": 91.9
  }
]

Qu. Look up and report measured growth for this entry: O=[N+]([O-])c1ccc(N=Nc2ccc(O)c3ccccc23)cc1
Ans. 38.1

* * *

test system: NCI-H460 lung; test: NCI-60 one-dose screen, 48 h (100 = growth as untreated, 0 = no growth, -100 = all killed); conditions: 10 µM
The panel holds about 83,000 compounds, 20% with a hit somewhere; the sample as a whole holds those more often.
ENDPOINT_NAME: growth (%)
Give the value in % but do not write % after it.

Qu. Respond only with growth recorded for CCCNc1ccc(C2=NCCCN2)cc1
Ans. 103

Qu. Indicate its recorded growth; the compound in question is C/C(O)=C(\C=N\C(N)=S)C(=O)Nc1ccccc1
Ans. 99.9

Qu. Look up growth of CN(C)C(=O)Oc1cccc([N+](C)(C)C)c1 and report it.
Ans. 113

Qu. Return growth (reported value) for this compound: Clc1ccc(-c2nnc(-c3cccc4ccccc34)o2)cc1
Ans. 96.4

Qu. Give recorded growth. CC1(C)N=C(N)N=C(N)N1c1ccc(Cl)cc1
Ans. 18.3

Qu. Read off the recorded growth for CCOC(=O)c1ccc(NC(=S)P(=O)(c2ccccc2)c2ccccc2)cc1
Ans. 71.3

Qu. Report growth, nothing else, for this compound: O=C(O)c1cccc([N+](=O)[O-])c1O
Ans. 104

Qu. Please indicate growth recorded for C=CC(O)CCC (configuration not stated)
Ans. 104

Qu. Tell me its growth given CC(C)OC(=O)c1cc(NC(=S)OC(C)C)ccc1Cl as the entry.
Ans. 108

Qu. Hello, please tell me recorded growth for this one: CCN(CC)CCCC(C)Nc1ccnc(/C=C/c2ccc(Cl)cc2)c1 (configuration not stated)
Ans. 9.3

Qu. Supply recorded growth for C/C(=C\c1ccc([N+](=O)[O-])cc1)C(=O)O here.
Ans. 102

Qu. Return value of growth for input CC1SC(N)=NC1=O (configuration not stated) , no commentary.
Ans. 115

Qu. Read off the recorded growth for CC(=O)C1CCCCC1
Ans. 102

Qu. Give reported growth value for CCOC(=O)Nc1nn[nH]n1
Ans. 99.9

Qu. Give growth for CCCCC(O)c1ccccc1 (configuration not stated)
Ans. 105

Qu. State its growth: C=CCOC(=O)C(=O)OCC=C
Ans. 112

Qu. Answer with the recorded growth for the compound listed here: O=c1cc(-c2ccccc2)nc2cc(-c3ccco3)[nH]n12
Ans. 104

Qu. Consider the compound N#Cc1ccc(OC(=O)Nc2ccc(Cl)c(Cl)c2)cc1 . State its measured growth.
Ans. 99.8
